Source listed as ChEMBL document CHEMBL2150861.

Target: Peroxisome proliferator-activated receptor alpha (Homo sapiens) (UniProt Q07869)
Experiment: Antagonist activity at PPARalpha expressed in HEK293A cells co-expressing GAL4 assessed as inhibition of GW7647-induced transactivation activity at 1 to 150 uM after 16 to 18 hrs by luciferase reporter gene assay
Type: functional, cell-based
Details: HEK293-A
Calls of active or inactive are those of the source. The rule behind the calls is not given here.
quantity name: inhibition

1. CCOc1ccc2nc(SC(C)C(=O)NS(C)(=O)=O)sc2c1 (stereo not given) | inactive
2. CC(C)(Oc1ccc(C(=O)c2ccc(Cl)cc2)cc1)C(=O)NS(C)(=O)=O | inactive
3. CC(C)(Oc1ccc(Cl)cc1)C(=O)NS(C)(=O)=O | inactive
4. CC(C)(Oc1ccc(Cl)cc1)C(=O)O | inactive

# get_value(readout='inhibition', item= Cc1ccc(C)c(OCCCC(C)(C)C(=O)NS(C)(=O)=O)c1 )
inactive

====

Target: Peroxisome proliferator-activated receptor alpha (Homo sapiens) (UniProt Q07869)
Sequence (whole entry): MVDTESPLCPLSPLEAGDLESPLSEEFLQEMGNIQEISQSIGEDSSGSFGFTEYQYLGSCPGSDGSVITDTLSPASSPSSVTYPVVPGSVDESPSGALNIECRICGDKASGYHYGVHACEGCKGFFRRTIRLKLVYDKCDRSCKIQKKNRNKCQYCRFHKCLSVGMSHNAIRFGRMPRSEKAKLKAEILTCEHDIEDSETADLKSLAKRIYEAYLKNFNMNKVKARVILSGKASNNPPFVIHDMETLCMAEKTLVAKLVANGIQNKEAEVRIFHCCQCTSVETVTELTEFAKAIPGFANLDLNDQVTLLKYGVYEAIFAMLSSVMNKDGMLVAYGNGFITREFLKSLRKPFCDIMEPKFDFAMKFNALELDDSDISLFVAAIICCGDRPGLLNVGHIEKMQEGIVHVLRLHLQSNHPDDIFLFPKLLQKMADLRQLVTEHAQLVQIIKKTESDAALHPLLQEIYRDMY
Assay: Binding affinity to PPARalpha LBD at 100 uM after 2 hrs by TR-FRET analysis
Calls of active or inactive are those of the source. The calls are words filed in the database; no cut-off is given here.
quantity name: Activity

1. CC(C)(Oc1ccc(C(=O)c2ccc(Cl)cc2)cc1)C(=O)NS(C)(=O)=O | 128%
2. CS(=O)(=O)NC(=O)C(Sc1nc2cc(Cl)ccc2s1)c1ccccc1 (stereo unspecified) | 95.3%
3. CCCCC(Sc1nc2cc(Cl)ccc2s1)C(=O)NS(C)(=O)=O (stereo unspecified) | 117%
4. CC(C)C(Sc1nc2cc(Cl)ccc2s1)C(=O)NS(C)(=O)=O (stereo unspecified) | Active

Give Peroxisome proliferator-activated receptor alpha (Homo sapiens) (UniProt Q07869) Activity for CC(C)(Oc1ccc(Cl)cc1)C(=O)NS(C)(=O)=O
121%

And then CCOc1ccc2nc(SC(C)C(=O)NS(C)(=O)=O)sc2c1 (stereo unspecified) , what is it?
Active

And then CCCC(Sc1nc2cc(Cl)ccc2s1)C(=O)NS(C)(=O)=O (stereo unspecified) , what is it?
80.9%

And then CCCCCCC(Sc1nc2cc(Cl)ccc2s1)C(=O)NS(C)(=O)=O (stereo unspecified) , what is it?
Active

And then CCCC(Sc1nc2ccc(OCC)cc2s1)C(=O)NS(C)(=O)=O (stereo unspecified) , what is it?
137%

And then Cc1ccc(C)c(OCCCC(C)(C)C(=O)NS(C)(=O)=O)c1 , what is it?
118%

And then CC(C)(Oc1ccc(CCNC(=O)c2ccc(Cl)cc2)cc1)C(=O)NS(C)(=O)=O , what is it?
Active

====

Parameter: EC50. Scope: all listed entries.
Biological target: Peroxisome proliferator-activated receptor alpha (Homo sapiens)
Sequence (Q07869 whole entry): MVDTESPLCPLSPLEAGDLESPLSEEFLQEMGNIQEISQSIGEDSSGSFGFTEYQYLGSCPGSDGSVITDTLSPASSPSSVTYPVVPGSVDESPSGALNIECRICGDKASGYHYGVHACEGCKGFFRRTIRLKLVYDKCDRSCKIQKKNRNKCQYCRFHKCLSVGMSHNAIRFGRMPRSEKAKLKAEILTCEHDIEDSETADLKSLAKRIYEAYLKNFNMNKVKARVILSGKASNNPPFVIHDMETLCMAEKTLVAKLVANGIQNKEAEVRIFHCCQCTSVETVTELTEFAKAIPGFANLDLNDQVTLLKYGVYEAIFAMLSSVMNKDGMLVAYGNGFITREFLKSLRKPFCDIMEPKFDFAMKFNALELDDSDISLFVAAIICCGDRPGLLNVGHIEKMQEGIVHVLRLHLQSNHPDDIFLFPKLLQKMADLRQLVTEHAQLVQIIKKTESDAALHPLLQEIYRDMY
Experiment: Transactivation of PPARalpha expressed in HEK293A cells co-expressing GAL4 after 16 to 18 hrs by luciferase reporter gene assay
Just the number in µM, nothing appended.

1) CCOc1ccc2nc(SC(C)C(=O)NS(C)(=O)=O)sc2c1 (stereo not drawn) | 1.59
2) CC(C)(Oc1ccc(Cl)cc1)C(=O)NS(C)(=O)=O | 10.7

# get_value(readout='EC50', item= Cc1ccc(C)c(OCCCC(C)(C)C(=O)NS(C)(=O)=O)c1 )
7.1

====

Biological target: Peroxisome proliferator-activated receptor alpha (Homo sapiens)
Sequence (Q07869 whole entry): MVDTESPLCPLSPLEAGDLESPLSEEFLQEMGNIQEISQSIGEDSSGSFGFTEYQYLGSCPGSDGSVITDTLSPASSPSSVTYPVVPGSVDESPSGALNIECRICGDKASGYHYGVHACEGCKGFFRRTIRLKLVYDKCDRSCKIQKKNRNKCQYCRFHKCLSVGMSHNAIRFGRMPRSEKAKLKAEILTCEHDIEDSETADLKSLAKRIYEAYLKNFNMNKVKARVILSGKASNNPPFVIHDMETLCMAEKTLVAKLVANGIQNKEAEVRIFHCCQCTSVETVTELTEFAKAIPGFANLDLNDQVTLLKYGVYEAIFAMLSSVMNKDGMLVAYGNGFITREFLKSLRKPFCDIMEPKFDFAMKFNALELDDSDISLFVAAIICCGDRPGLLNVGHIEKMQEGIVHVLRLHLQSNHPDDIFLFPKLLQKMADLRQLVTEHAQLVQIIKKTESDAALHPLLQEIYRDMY
Test: Binding affinity to PPARalpha LBD after 2 hrs by TR-FRET analysis
quantity name: pIC50
FYI, pIC50 means -log10 of a concentration in mol per litre.

1) CCCC(Sc1nc2ccc(OCC)cc2s1)C(=O)NS(C)(=O)=O (centres undefined) | 6.32
2) CS(=O)(=O)NC(=O)C(Sc1nc2cc(Cl)ccc2s1)c1ccccc1 (centres undefined) | 6.02
3) CCCC(Sc1nc2cc(Cl)ccc2s1)C(=O)NS(C)(=O)=O (centres undefined) | 6.05

Now consider the entry below.
# get_value(readout='pIC50', item= CCCCC(Sc1nc2cc(Cl)ccc2s1)C(=O)NS(C)(=O)=O (centres undefined) )
6.22

====

Parameter: fold change (FC). Scope: all listed entries.
Target: Peroxisome proliferator-activated receptor alpha (Homo sapiens)
Experiment: Transactivation of PPARalpha expressed in HEK293A cells co-expressing GAL4 at 150 uM after 16 to 18 hrs by luciferase reporter gene assay relative to control
Assay type: cell-based
Settings: HEK293-A
Lab note: jot the number down without any unit.

1. CC(C)(Oc1ccc(Cl)cc1)C(=O)O | 1.6
2. Cc1ccc(C)c(OCCCC(C)(C)C(=O)NS(C)(=O)=O)c1 | 1.55
3. CCCC(Sc1nc2cc(Cl)ccc2s1)C(=O)NS(C)(=O)=O (configuration not stated) | 0.28
4. CC(C)(Oc1ccc(Cl)cc1)C(=O)NS(C)(=O)=O | 1.7
5. CCCC(Sc1nc2ccc(OCC)cc2s1)C(=O)NS(C)(=O)=O (configuration not stated) | 0.36
6. CC(C)C(Sc1nc2cc(Cl)ccc2s1)C(=O)NS(C)(=O)=O (configuration not stated) | 0.47

# get_value(readout='fold change (FC)', item= CS(=O)(=O)NC(=O)C(Sc1nc2cc(Cl)ccc2s1)c1ccccc1 (configuration not stated) )
0.07

And then CCCCCCC(Sc1nc2cc(Cl)ccc2s1)C(=O)NS(C)(=O)=O (configuration not stated) , what is it?
0.04

And then CC(C)(Oc1ccc(C(=O)c2ccc(Cl)cc2)cc1)C(=O)NS(C)(=O)=O , what is it?
1.1

And then CCCCC(Sc1nc2cc(Cl)ccc2s1)C(=O)NS(C)(=O)=O (configuration not stated) , what is it?
0.08

And then CC(C)(Oc1ccc(CCNC(=O)c2ccc(Cl)cc2)cc1)C(=O)NS(C)(=O)=O , what is it?
0.44

And then CCOc1ccc2nc(SC(C)C(=O)NS(C)(=O)=O)sc2c1 (configuration not stated) , what is it?
1.84
